Data provenance: patent US7419968B1

# System: CCD18co normal colon epthelial cell
# test-description: Thymidine rescue, alamar blue
# Assay type: cell-based, human
# assay-setup: Homo sapiens, CCD-18Co, without thymidine

[
  {
    "chemical-structure": "Cc1nc2ccc(CN(C)c3ccc(C(=O)N[C@@H](CCC(=O)O)C(=O)O)s3)cc2c(=O)[nH]1",
    "IC50 (nM)": 6.5
  }
]

###

# Tested on: C/HT1080 cells
# test-description: alamarBlue growth inhibition, C/HT1080 control
# Format: cell-based
# assay-setup: Homo sapiens, HT-1080; C/HT1080, TS Level 100%
pIC50: −log10 of the molar value.
recorded-endpoint: pIC50

[
  {
    "chemical-structure": "Cc1nc2ccc(CN(C)c3ccc(C(=O)N[C@@H](CCC(=O)O)C(=O)O)s3)cc2c(=O)[nH]1",
    "study-target": "C/HT1080 cells",
    "result-number": 5.44
  }
]

###

# Test system: CCD18co normal colon epthelial cell
# test-description: Thymidine rescue, alamar blue
# Format: cell-based, human
# assay-setup: Homo sapiens, CCD-18Co, with 10 uM thymidine
# Text: An additional approach was taken to understanding whether NB1011 might interfere with cell growth primarily by inactivating TS. This approach is based upon thymidine rescue of TS-blocked cells. […] For this reason, they survive only by scavenger mechanisms. One of the important scavenger mechanisms is utilization of extracellular thymidine. Thymidine incorporated by target cells can be converted to dTMP, usually by thymidine kinase, and thus continue DNA synthesis. […]
pIC50: −log10 of the molar value.

[
  {
    "chemical-structure": "Cc1nc2ccc(CN(C)c3ccc(C(=O)N[C@@H](CCC(=O)O)C(=O)O)s3)cc2c(=O)[nH]1",
    "pIC50": 7.02
  }
]

###

# System: TSL/HT1080 cells (GFP-TS, lower expression)
# test-description: alamarBlue growth inhibition, TSL/HT1080
# Assay type: cell-based
# assay-setup: Homo sapiens, HT-1080; TSL/HT1080, TS Level 409%

[
  {
    "chemical-structure": "Cc1nc2ccc(CN(C)c3ccc(C(=O)N[C@@H](CCC(=O)O)C(=O)O)s3)cc2c(=O)[nH]1",
    "IC50 / µM": 24
  }
]
